Data credit: ChEMBL document CHEMBL5634098

Some compounds, each annotated with its measured Ki.
target system: UniProtKB P14416
experiment notes: Displacement of [3H]-raclopride from human D2 receptor expressed in HEK293 cell membranes assessed as inhibition constant incubated for 1 hr by Microbeta plate reader based analysis
Lab book: enter the figure in nM, no units written.

Look over these answered cases.
CCC(Oc1cccc(Cl)c1F)c1nc(N)nc(N2CCN(C)CC2)n1 (stereo not given)
595
CC(Oc1cc(Cl)ccc1F)c1nc(N)nc(N2CCN(C)CC2)n1 (stereo not given)
416
CCC(Oc1cccc(Cl)c1Cl)c1nc(Nc2ccccc2)nc(N2CCN(C)CC2)n1 (stereo not given)
411
CCC(Oc1cc(F)ccc1F)c1nc(N)nc(N2CCN(C)CC2)n1 (stereo not given)
1630

Q: Check UniProtKB P14416 data and give Ki for CC(Oc1cccc(F)c1F)c1nc(N)nc(N2CCN(C)CC2)n1 (stereo not given) .
A: 1350

Q: Check UniProtKB P14416 data and give Ki for CCCCC(Oc1cc(Cl)cc(Cl)c1)c1nc(Nc2ccccc2)nc(N2CCN(C)CC2)n1 (stereo not given) .
A: 2590

Q: Check UniProtKB P14416 data and give Ki for CC(Oc1cc(C(F)(F)F)ccc1C(F)(F)F)c1nc(N)nc(N2CCN(C)CC2)n1 (stereo not given) .
A: 811

Q: Check UniProtKB P14416 data and give Ki for CCC(Oc1cc(F)ccc1Cl)c1nc(N)nc(N2CCN(C)CC2)n1 (stereo not given) .
A: 602

Q: Check UniProtKB P14416 data and give Ki for CC(Oc1cccc(Cl)c1F)c1nc(N)nc(N2CCN(C)CC2)n1 (stereo not given) .
A: 472

Q: Check UniProtKB P14416 data and give Ki for CCC(Oc1cc(Cl)cc(Cl)c1)c1nc(Nc2ccccc2)nc(N2CCN(C)CC2)n1 (stereo not given) .
A: 565

Q: Check UniProtKB P14416 data and give Ki for CCC(Oc1cc(C(F)(F)F)ccc1C(F)(F)F)c1nc(N)nc(N2CCN(C)CC2)n1 (stereo not given) .
A: 820

Q: Check UniProtKB P14416 data and give Ki for CCC(Oc1cc(F)ccc1C(F)(F)F)c1nc(N)nc(N2CCN(C)CC2)n1 (stereo not given) .
A: 260

Q: Check UniProtKB P14416 data and give Ki for CCC(Oc1cc(Cl)cc(Cl)c1)c1nc(Nc2ccncc2)nc(N2CCN(C)CC2)n1 (stereo not given) .
A: 723

Q: Check UniProtKB P14416 data and give Ki for CCC(Oc1cc(F)ccc1OC)c1nc(N)nc(N2CCN(C)CC2)n1 (stereo not given) .
A: 1790

Q: Check UniProtKB P14416 data and give Ki for CCC(Oc1cccc(F)c1Cl)c1nc(N)nc(N2CCN(C)CC2)n1 (stereo not given) .
A: 3360

---

experiment notes: Cytotoxicity against human HepG2 cells assessed as cell viability at 100 uM incubated for 72 hrs by MTS assay relative to control
Format: toxicity, cell-based
condition description: read-out: Activity
measured parameter: viability at 72 h, 100 µM

Q: State its viability at 72 h, 100 µM for this compound: CCC(Oc1cc(Cl)ccc1F)c1nc(N)nc(N2CCN(C)CC2)n1 (stereo unspecified)
A: < 50%

---

target system: 5-hydroxytryptamine receptor 1A (Homo sapiens, UniProt P08908)
Sequence (P08908 whole entry): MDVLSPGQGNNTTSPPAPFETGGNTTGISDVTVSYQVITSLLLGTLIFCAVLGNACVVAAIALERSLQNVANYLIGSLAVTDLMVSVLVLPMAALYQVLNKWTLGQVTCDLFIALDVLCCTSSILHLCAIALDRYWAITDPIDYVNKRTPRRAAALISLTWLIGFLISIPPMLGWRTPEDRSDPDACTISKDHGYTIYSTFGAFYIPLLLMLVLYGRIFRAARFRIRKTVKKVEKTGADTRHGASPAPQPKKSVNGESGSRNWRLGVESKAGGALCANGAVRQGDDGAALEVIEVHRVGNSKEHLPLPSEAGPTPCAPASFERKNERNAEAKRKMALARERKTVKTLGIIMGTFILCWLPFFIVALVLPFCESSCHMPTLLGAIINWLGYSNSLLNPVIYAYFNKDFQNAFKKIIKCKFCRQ
measured parameter: Ki (µM)
Lab book: enter the figure in µM, no units written.

Look over these answered cases.
CC(Oc1cc(F)ccc1Cl)c1nc(N)nc(N2CCN(C)CC2)n1 (stereo not given)
1.54
CC(Oc1cc(F)ccc1F)c1nc(N)nc(N2CCN(C)CC2)n1 (stereo not given)
3.11
CCC(Oc1cc(Cl)ccc1Cl)c1nc(Nc2ccccc2)nc(N2CCN(C)CC2)n1 (stereo not given)
5.4
CCC(Oc1cc(C(F)(F)F)ccc1C(F)(F)F)c1nc(N)nc(N2CCN(C)CC2)n1 (stereo not given)
8.5

Continue with the next compound.
Q: State its Ki for this compound: CC(Oc1cc(Cl)ccc1F)c1nc(N)nc(N2CCN(C)CC2)n1 (stereo not given)
A: 2.02

---

target system: Cyclin-dependent kinase 5/CDK5 activator 1 (Homo sapiens)
Sequence (Q00535 whole entry): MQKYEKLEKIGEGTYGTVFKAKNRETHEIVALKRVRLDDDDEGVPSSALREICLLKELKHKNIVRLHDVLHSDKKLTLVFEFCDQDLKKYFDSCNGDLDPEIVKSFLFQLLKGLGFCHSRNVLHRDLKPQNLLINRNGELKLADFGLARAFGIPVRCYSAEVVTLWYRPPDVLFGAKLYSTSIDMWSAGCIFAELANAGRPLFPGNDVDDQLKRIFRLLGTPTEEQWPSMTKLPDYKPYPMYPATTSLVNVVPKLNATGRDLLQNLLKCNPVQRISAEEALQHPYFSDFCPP
Sequence (Q15078 whole entry, further chain): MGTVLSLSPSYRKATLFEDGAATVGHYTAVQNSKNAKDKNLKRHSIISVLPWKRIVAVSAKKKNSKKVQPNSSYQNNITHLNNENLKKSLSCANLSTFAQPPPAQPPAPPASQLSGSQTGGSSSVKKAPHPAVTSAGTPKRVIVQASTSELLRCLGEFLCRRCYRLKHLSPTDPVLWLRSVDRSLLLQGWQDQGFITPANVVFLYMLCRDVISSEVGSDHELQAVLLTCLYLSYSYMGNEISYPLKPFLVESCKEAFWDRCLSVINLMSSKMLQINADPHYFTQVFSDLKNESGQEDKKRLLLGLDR
experiment notes: Binding affinity to CDK5/p25 (unknown origin)
Assay type: protein-complex assay
measured parameter: Ki

Q: State its Ki for this compound: O=C(O)c1ccccc1Nc1ncnc(Nc2ccc3cn[nH]c3c2)n1
A: 251 nM

---

target system: 5-hydroxytryptamine receptor 2A (Homo sapiens, UniProt P28223)
Sequence (P28223 whole entry): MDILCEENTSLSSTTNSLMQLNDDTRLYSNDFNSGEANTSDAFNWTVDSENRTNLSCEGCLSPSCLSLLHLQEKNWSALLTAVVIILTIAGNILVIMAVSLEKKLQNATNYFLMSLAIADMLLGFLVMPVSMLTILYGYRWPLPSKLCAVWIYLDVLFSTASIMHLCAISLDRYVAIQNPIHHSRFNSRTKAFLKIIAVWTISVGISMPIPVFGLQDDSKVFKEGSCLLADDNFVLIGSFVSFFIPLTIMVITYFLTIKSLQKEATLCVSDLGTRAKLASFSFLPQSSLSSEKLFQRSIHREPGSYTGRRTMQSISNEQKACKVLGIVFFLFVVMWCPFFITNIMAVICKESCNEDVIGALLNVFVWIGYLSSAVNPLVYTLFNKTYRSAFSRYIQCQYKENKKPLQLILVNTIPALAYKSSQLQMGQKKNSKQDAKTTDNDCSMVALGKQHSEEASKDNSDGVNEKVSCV
pKi: −log10 of the molar value.
Label not fulfilled if pKi falls below 6; label fulfilled in every other case.

Observe how each entry below is paired with its result.
CCC(Oc1cc(C(F)(F)F)ccc1C(F)(F)F)c1nc(N)nc(N2CCN(C)CC2)n1 (configuration not stated)
not fulfilled
CC(Oc1cc(F)ccc1F)c1nc(N)nc(N2CCN(C)CC2)n1 (configuration not stated)
not fulfilled
CC(Oc1cc(Cl)ccc1F)c1nc(N)nc(N2CCN(C)CC2)n1 (configuration not stated)
fulfilled
CCC(Oc1cc(Cl)cc(Cl)c1)c1nc(Nc2ccncc2)nc(N2CCN(C)CC2)n1 (configuration not stated)
fulfilled

Now examine the next entry.
Q: Identify whether the reported pKi of the following compound is 6 or greater: CCC(Oc1cccc(F)c1Cl)c1nc(N)nc(N2CCN(C)CC2)n1 (configuration not stated)
A: not fulfilled

---

experiment notes: Metabolic stability at phase II in rat liver microsomes assessed as compound remaining at 50 uM preincubated for 5 mins followed by UDPGA and NADPH addition and measured after 1 hr by LC-MS analysis
Assay type: ADME, Microsome
condition description: time 65 min, read-out: Stability
measured parameter: remaining at 1 h, 50 µM

Q: State its remaining at 1 h, 50 µM for this molecule: CCC(Oc1cc(F)ccc1F)c1nc(N)nc(N2CCN(C)CC2)n1 (stereo unspecified)
A: 82.6%

---

Some compounds, each annotated with its measured pKi.
target system: D(2) dopamine receptor (Homo sapiens)
Sequence (P14416 whole entry): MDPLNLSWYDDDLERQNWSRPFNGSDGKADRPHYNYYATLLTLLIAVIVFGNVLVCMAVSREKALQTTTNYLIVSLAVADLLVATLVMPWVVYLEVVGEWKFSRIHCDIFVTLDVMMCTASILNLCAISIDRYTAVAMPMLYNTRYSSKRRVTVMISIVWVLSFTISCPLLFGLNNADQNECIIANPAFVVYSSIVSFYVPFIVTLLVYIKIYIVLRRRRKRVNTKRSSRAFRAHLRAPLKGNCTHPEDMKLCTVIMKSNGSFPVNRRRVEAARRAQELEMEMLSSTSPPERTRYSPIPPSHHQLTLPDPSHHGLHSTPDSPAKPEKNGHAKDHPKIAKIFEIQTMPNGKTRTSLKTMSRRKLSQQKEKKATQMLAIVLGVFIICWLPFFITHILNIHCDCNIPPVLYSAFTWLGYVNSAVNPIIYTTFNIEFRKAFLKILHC
experiment notes: Displacement of [3H]-raclopride from human D2 receptor expressed in HEK293 cell membranes assessed as inhibition constant incubated for 1 hr by Microbeta plate reader based analysis
pKi here is simply -log10 of the concentration when that concentration is written in mol/L.

Look over these answered cases.
CCC(Oc1cccc(F)c1F)c1nc(N)nc(N2CCN(C)CC2)n1 (stereo not given)
5.88
CC(Oc1cc(F)ccc1F)c1nc(N)nc(N2CCN(C)CC2)n1 (stereo not given)
5.99
CC(Oc1cc(C(F)(F)F)ccc1F)c1nc(N)nc(N2CCN(C)CC2)n1 (stereo not given)
6.03

Q: State its pKi for this compound: CC(Oc1cc(F)ccc1Cl)c1nc(N)nc(N2CCN(C)CC2)n1 (stereo not given)
A: 5.84

Q: State its pKi for this compound: CCC(Oc1cc(C(F)(F)F)ccc1F)c1nc(N)nc(N2CCN(C)CC2)n1 (stereo not given)
A: 5.97

Q: State its pKi for this compound: CCC(Oc1cc(Cl)ccc1Cl)c1nc(Nc2ccccc2)nc(N2CCN(C)CC2)n1 (stereo not given)
A: 6.38

Q: State its pKi for this compound: CCC(Oc1cc(Cl)ccc1F)c1nc(N)nc(N2CCN(C)CC2)n1 (stereo not given)
A: 6.09

Q: State its pKi for this compound: CC(Oc1cc(F)ccc1C(F)(F)F)c1nc(N)nc(N2CCN(C)CC2)n1 (stereo not given)
A: 6.39

Q: State its pKi for this compound: COc1ccc(F)cc1OC(C)c1nc(N)nc(N2CCN(C)CC2)n1 (stereo not given)
A: 5.61

Q: State its pKi for this compound: CCCCC(Oc1cc(Cl)cc(Cl)c1)c1nc(Nc2ccncc2)nc(N2CCN(C)CC2)n1 (stereo not given)
A: 5.68

---

target system: 5-hydroxytryptamine receptor 1A (Homo sapiens, UniProt P08908)
Please use fulfilled for Ki under 5 µM and not fulfilled for everything else, ties included.

CCC(Oc1cccc(F)c1Cl)c1nc(N)nc(N2CCN(C)CC2)n1 (stereo not given)
fulfilled
CCC(Oc1cc(F)ccc1OC)c1nc(N)nc(N2CCN(C)CC2)n1 (stereo not given)
fulfilled
CC(Oc1cccc(Cl)c1F)c1nc(N)nc(N2CCN(C)CC2)n1 (stereo not given)
fulfilled

Now examine the next entry.
Q: Does the reported Ki of the following compound sit strictly below 5 µM? CC(Oc1cc(F)ccc1C(F)(F)F)c1nc(N)nc(N2CCN(C)CC2)n1 (stereo not given)
A: not fulfilled
